Let's look at some proteins and their measured Proxy for plastic degradation.
Substrate: gfPET
test: Proxy for plastic degradation [Released monomer concentration (HPLC/LC-MS) (TPA+MHET+BHET)]
assay-context: 70 °C
Just the number in mmol/h, nothing appended.

unnamed (protein) MDNPYERGPDPTTQSVEAARGPYAVSQITVGGQFGSYSGGTIYYPTSTTDGKFGAVAIAPGFLSFQSSVAWLGPRIASQGFVVMTIDTGTIFDQPAQRGDQLLDALDFLTQRSSVKDRIDPNRLAVAGWSMGGGGSLEAAADRPSLKAAIPMAGWNLNTNWSRLTTPVLVVGVQNDLIAPVAMHSEPFYNSIRSEKAYLELAGGSHFTVTSANTPQAKLMISWLKRFVDNDTRYEQFICPGPSRGFSVSEYRSTCPF; 0

Consider the additional protein presented here.
Sample unnamed (protein) MENPYERGPDPTESSIEAVRGPFAVAQTTVSRLQADGFGGGTIYYPTDTSQGTFGAVAISPGFTAGQESIAWLGPRIASQGFVVITIDTITRLDQPDSRGRQLQAALDHLRTNSVVRNRIDPNRMAVMGHSMGGGGALSAAANNTSLEAAIPLQGWHTRKNWSSVRTPTLVVGAQLDTIAPVSSHSEAFYNSLPSDLDKAYMELRGASHFVSNTPDTTTAKYSIAWLKRFVDNDLRYEQFLCPAPDDFAISEYRATCPF ; Proxy for plastic degradation observed: 0.3

From: the PETadex activity labels (doi:10.1002/cssc.202101062)
